# assay.target: human Claudin18.2 (human)
# experiment.summary: cell-based or functional assay
CDC EC50 listing for selected binders.
observation.type: CDC EC50 (µg/mL)

{"binder": "chimeric 250F4G4 (antibody, human IgG1, kappa, V domains shown, chimeric, human IgG1/kappa constant regions) VH: QAYLQQSGAELVRSGASVKMSCKASGYTFTSHNMHWVKQTPGQGLEWIGYIYPGNGRTNYNQKFKGKATLTADTSSSTAYMQISSLTSEDSAVYFCTRDYYGNSFAYWGQGTLVTVSA VL: DIVMTQSPSSLTEKVGERVSMSCKSSQSLFNSGNQKNYLTWYQQKPGQPPKLLIYWASTRESGVPDRFTGSGSGTDFTLTISSVQAEDLAVYYCQNDYWYPFTFGAGTKLELKR", "value.measured": 0.309}
{"binder": "chimeric 419B5G9 (antibody, human IgG1, kappa, V domains shown, chimeric, human IgG1/kappa constant regions) VH: DVQLVESGGGLVQPGGSRKLSCAASGFTFSTFGMHWVRQAPEKGLEWVAYISGGSTTIFYADTVKGRFTISRDNPKNTLFLQMTSVRSEDTAMYYCARFYYGNSFAYWGPGTLVTVST VL: DIVMTQSPSSLTVTAGEKVTMSCKSSQSLLNSGNQKNYLTWYQQKPGQPPKMLIYWASTRESGVPDRFTGSGSGTDFTLTISSVQAEDLAVYYCQNAYSYPLTFGAGTKLELKR", "value.measured": 0.106}
{"binder": "chimeric 262C7C10 (antibody, human IgG1, kappa, V domains shown, chimeric, human IgG1/kappa constant regions) VH: QAYLQQSGAELVRSGASVKMSCKASGYTFTNYNIHWVKQTPGQGLEWIGYIYPGNGGNYYNQKFKGKATLTADTSSITAYMQISSLTSEDSAVYFCARDYYGNSFAYWGQGTLVTVSA VL: DIVMTQSPSSLTVTAGEKVTMNCKSSQSLLNSGNQKNYLTWYQQKPGQPPKLLIYWASTRESGVPDRFTGSGSGTDFTLTISSVQAEDLAIYYCQNDYYYPLTFGAGTKLELKR", "value.measured": 0.345}
